Recorded melting point by entry

Consider the following illustrative entries.
COMPOUND | melting point
CN(Cc1ccccc1)c1ccc(-c2csc(CN(CC(=O)O)Cc3ccc(Cl)cc3)n2)cc1 [Example 3-49] | 140 to 142 °C
CCCC(CCC)c1ccc(Cn2c(-c3ccccc3)c(-c3csc(CN4CCC(C(=O)O)CC4)n3)c3ccccc32)cc1 [Example 1-183] | 101 to 103 °C

Challenge: // melting point lookup, key: CCCC(CCC)c1ccc(Cn2cc(-c3csc(CN4CCC(C(=O)O)CC4)n3)c3ccccc32)cc1 [Example 1-165]
Response given: 111 to 115 °C

Challenge: // melting point lookup, key: CN(Cc1ccc([C@H]2CC[C@H](C)CC2)cc1)c1ccc(-c2csc(CN3CCC(C(=O)O)(c4ccccc4)CC3)n2)cc1 [Example 3-69]
Response given: 229 to 231 °C
